# SYSTEM_UNDER_TEST: Adenosine receptor A2b (Homo sapiens) (UniProt P29275)
# Sequence (P29275 whole entry): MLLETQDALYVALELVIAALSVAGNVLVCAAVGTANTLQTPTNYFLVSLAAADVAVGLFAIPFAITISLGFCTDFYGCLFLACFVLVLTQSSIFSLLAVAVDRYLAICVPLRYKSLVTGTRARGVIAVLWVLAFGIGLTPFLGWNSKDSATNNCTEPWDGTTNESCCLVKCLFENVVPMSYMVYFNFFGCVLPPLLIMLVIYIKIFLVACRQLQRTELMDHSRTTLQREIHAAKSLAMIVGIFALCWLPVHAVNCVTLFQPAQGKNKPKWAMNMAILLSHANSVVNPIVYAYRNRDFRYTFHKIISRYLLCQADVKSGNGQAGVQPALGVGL
# PROTOCOL: Displacement of [3H]DPCPX from recombinant human adenosine A2B receptor expressed in HEK293 cells at 0.01 uM
Okay, here is how we bin by inhibition: low: < 20%; middle: ≥ 20% and < 30%; high: ≥ 30%

Some entries whose results are on file:
>  <COMPOUND>
CCCn1c(=O)n(C)c(=O)c2[nH]c(-c3ccc(OCC(=O)Nc4ccccc4)cc3)cc21

>  <GROUP>
high

$$$$
>  <COMPOUND>
CCCn1c(=O)c2[nH]c(-c3ccc(OCC(=O)NCc4ccncc4)cc3)cc2n(C)c1=O

>  <GROUP>
middle

$$$$
>  <COMPOUND>
O=C(COc1ccc(-c2cc3c([nH]2)c(=O)n(CC(F)(F)F)c(=O)n3CC(F)(F)F)cc1)Nc1ccc(F)cc1

>  <GROUP>
middle

$$$$
>  <COMPOUND>
CCCn1c(=O)c2[nH]c(-c3ccc(OCC(=O)Nc4ccc(C(C)=O)cc4)cc3)cc2n(CCC)c1=O

>  <GROUP>
middle

$$$$
>  <COMPOUND>
CCCn1c(=O)c2[nH]c(-c3ccc(OCC(=O)Nc4ccc(CC(=O)O)cc4)cc3)cc2n(CCC)c1=O

>  <GROUP>
low

$$$$

Class label required: CCCn1c(=O)c2[nH]c(-c3ccc(OC(CC)C(=O)Nc4ccccc4)cc3)cc2n(CCC)c1=O (configuration not stated)
high

Class label required: CCCn1c(=O)n(C)c(=O)c2[nH]c(-c3ccc(OCC(=O)NCc4ccccc4)cc3)cc21
low

Class label required: COc1cc(-c2cc3c([nH]2)c(=O)n(C)c(=O)n3C)ccc1OCC(=O)Nc1ccc(F)cc1
low

Class label required: CCCn1c(=O)c2[nH]c(-c3ccc(OCC(=O)Nc4cccnc4)cc3)cc2n(CCC)c1=O
low

Class label required: CCCn1c(=O)c2[nH]c(-c3ccc(OC(CC)C(=O)Nc4ccc(Br)cc4)cc3)cc2n(CCC)c1=O (configuration not stated)
high

Class label required: Cn1c(=O)c2[nH]c(-c3ccc(OCC(=O)Nc4ccc([N+](=O)[O-])cc4)cc3)cc2n(C)c1=O
high

Class label required: CCCn1c(=O)c2[nH]c(-c3ccc(OCC(=O)Nc4ccc(Br)cc4)cc3)cc2n(CCC)c1=O
high

Class label required: CCCn1c(=O)c2[nH]c(-c3ccc(OCC(=O)Nc4ccc(OC)nc4)cc3)cc2n(C)c1=O
high

* * *

# SYSTEM_UNDER_TEST: Adenosine receptor A2b (Homo sapiens) (UniProt P29275)
# PROTOCOL: Displacement of [3H]DPCPX from recombinant human adenosine A2B receptor expressed in HEK293 cells at 0.1 uM
# Type: cell-based
Label Fulfilled when inhibition is at or above 80%; anything below gets Not fulfilled.

>  <COMPOUND>
CCCn1c(=O)c2[nH]c(-c3ccc(OC(C(=O)Nc4ccccc4)c4ccccc4)cc3)cc2n(CCC)c1=O (stereo not drawn)

>  <SYSTEM_UNDER_TEST>
Adenosine receptor A2b (Homo sapiens) (UniProt P29275)

>  <GROUP>
Fulfilled

$$$$
>  <COMPOUND>
CCCn1c(=O)c2[nH]c(-c3ccc(OCC(=O)Nc4ccc(C)cn4)cc3)cc2n(C)c1=O

>  <SYSTEM_UNDER_TEST>
Adenosine receptor A2b (Homo sapiens) (UniProt P29275)

>  <GROUP>
Not fulfilled

$$$$
>  <COMPOUND>
CCCn1c(=O)c2[nH]c(-c3ccc(OCC(=O)Nc4ncccc4C)cc3)cc2n(C)c1=O

>  <SYSTEM_UNDER_TEST>
Adenosine receptor A2b (Homo sapiens) (UniProt P29275)

>  <GROUP>
Not fulfilled

$$$$
>  <COMPOUND>
CCCn1c(=O)n(C)c(=O)c2[nH]c(-c3ccc(OCC(=O)NCc4ccccc4)cc3)cc21

>  <SYSTEM_UNDER_TEST>
Adenosine receptor A2b (Homo sapiens) (UniProt P29275)

>  <GROUP>
Not fulfilled

$$$$
>  <COMPOUND>
CCCn1c(=O)c2[nH]c(-c3ccc(OCC(=O)N[C@H](C)[C@H](O)c4ccccc4)cc3)cc2n(CCC)c1=O

>  <SYSTEM_UNDER_TEST>
Adenosine receptor A2b (Homo sapiens) (UniProt P29275)

>  <GROUP>
Not fulfilled

$$$$

Does inhibition meet or surpass 80% for CCCn1c(=O)c2[nH]c(-c3ccc(OCC(=O)Nc4ccc(CC#N)cc4)cc3)cc2n(CCC)c1=O ?
Fulfilled

Does inhibition meet or surpass 80% for CC(=O)c1ccc(NC(=O)COc2ccc(-c3cc4c([nH]3)c(=O)n(C)c(=O)n4C)cc2)cc1 ?
Fulfilled

Does inhibition meet or surpass 80% for CCCn1c(=O)c2[nH]c(-c3ccc(OCC(=O)NC(CO)c4ccccc4)cc3)cc2n(CCC)c1=O (stereo not drawn) ?
Not fulfilled

Does inhibition meet or surpass 80% for CCCn1c(=O)n(C)c(=O)c2[nH]c(-c3ccc(OCC(=O)Nc4ccc(F)cc4)cc3)cc21 ?
Fulfilled

Does inhibition meet or surpass 80% for CC(Oc1ccc(-c2cc3c([nH]2)c(=O)n(C)c(=O)n3C)cc1)C(=O)Nc1ccc(Br)cc1 (stereo not drawn) ?
Fulfilled

Does inhibition meet or surpass 80% for CCCn1c(=O)c2nc(-c3ccc(OCC(N)=O)cc3)[nH]c2n(CCC)c1=O ?
Not fulfilled

Does inhibition meet or surpass 80% for COc1cc(-c2cc3c([nH]2)c(=O)n(C)c(=O)n3C)ccc1OCC(=O)Nc1ccc(C#N)cc1 ?
Not fulfilled

Does inhibition meet or surpass 80% for CCCn1c(=O)c2[nH]c(-c3ccc(OCC(=O)Nc4cc(F)ccc4O)cc3)cc2n(CCC)c1=O ?
Fulfilled

Does inhibition meet or surpass 80% for CCCn1c(=O)c2[nH]c(-c3ccc(OCC(=O)Nc4ccc(C(=O)OCC)cc4)cc3)cc2n(C)c1=O ?
Fulfilled
